SYSTEM_TESTED: T1, 4H687-bA
T1 chain: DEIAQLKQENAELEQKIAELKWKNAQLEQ
EXPERIMENTAL_DETAILS: two-hybrid library CCNG1;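 also: natural log of median RNA to DNA barcode read ratio; higher means stronger binding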
OUTCOME_MEASURE: interaction score

BINDER: DKNAQLKQKIAELEQEIAELKWKNAQLEQ [4H3855-bA]
interaction score: -0.551
//
BINDER: DKNAQLEQEIAELEQKIAELEWKNAQLKQ [4H3112-bA]
interaction score: -1.13

A = DKIAQLKQEIAELEQKNAELEWEIAQLKQ [4H2610-bA]
B = DKIAQLKQENAELEQKIAELKWEIAQLEQ [4H2729-bA]
[in] Could you check which of A and B has a smaller value for interaction score? The response must carry the label of the picked entry.
[out] B
